pIC50: −log10 of the molar value.
Record set of pIC50 for target or system UniProt P06213.
Sequence (P06213 28-758 limits assumed): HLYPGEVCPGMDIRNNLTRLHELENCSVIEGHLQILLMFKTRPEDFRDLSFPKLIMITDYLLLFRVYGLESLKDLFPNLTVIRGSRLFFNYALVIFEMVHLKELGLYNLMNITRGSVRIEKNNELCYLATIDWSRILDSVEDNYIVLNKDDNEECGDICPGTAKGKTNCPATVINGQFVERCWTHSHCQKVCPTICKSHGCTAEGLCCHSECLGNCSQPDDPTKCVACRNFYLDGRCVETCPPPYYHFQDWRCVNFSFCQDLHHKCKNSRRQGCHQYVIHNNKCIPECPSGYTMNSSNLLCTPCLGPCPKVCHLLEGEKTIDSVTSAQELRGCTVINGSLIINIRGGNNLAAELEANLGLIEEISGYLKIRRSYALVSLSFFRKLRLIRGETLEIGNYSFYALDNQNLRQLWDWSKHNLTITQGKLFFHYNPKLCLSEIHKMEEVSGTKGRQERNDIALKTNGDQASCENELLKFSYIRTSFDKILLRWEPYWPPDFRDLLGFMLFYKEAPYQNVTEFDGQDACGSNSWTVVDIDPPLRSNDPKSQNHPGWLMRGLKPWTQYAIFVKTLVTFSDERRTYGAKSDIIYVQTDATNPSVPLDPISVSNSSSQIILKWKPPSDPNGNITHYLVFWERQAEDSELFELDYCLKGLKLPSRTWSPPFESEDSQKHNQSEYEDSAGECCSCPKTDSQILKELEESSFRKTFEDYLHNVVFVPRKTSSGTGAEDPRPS
Sequence (P06213 763-1382 limits assumed): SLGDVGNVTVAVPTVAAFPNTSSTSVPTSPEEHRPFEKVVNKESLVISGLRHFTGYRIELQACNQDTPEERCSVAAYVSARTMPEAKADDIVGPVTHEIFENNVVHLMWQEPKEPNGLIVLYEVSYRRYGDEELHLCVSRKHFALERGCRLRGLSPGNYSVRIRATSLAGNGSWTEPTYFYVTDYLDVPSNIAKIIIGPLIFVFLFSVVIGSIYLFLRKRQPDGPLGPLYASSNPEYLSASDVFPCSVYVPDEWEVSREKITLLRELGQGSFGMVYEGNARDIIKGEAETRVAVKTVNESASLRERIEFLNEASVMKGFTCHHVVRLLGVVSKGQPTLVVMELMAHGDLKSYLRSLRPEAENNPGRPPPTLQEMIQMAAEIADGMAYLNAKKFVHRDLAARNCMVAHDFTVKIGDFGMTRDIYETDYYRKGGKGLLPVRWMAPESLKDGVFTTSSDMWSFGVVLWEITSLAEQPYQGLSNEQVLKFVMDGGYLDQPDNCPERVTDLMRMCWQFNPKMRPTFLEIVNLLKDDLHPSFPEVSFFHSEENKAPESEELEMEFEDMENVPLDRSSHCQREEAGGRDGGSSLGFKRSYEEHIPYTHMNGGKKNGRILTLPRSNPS

Suppose we examine the compound CN(C)CCN(C)S(=O)(=O)c1ccc2c(c1)C(C1=Nc3ccccc3C1(C)O)C(=O)N2 (stereo not drawn) [Indirubin derivative, 28b] ; what pIC50 value has been reported?
< 5.00

Suppose we examine the compound C=CCC1(O)C(C2C(=O)Nc3ccc(S(=O)(=O)N(C)CCN(C)C)cc32)=Nc2ccccc21 (stereo not drawn) [Indirubin derivative, 30b] ; what pIC50 value has been reported?
< 5.00

Suppose we examine the compound O=C1Nc2ccc(Br)cc2C1=C1Nc2ccccc2C1=O ; what pIC50 value has been reported?
< 5.00
